Listed below: melting point values for each entry.
The reply should be a number in °C, with the unit left off.

Consider the worked cases shown below.
CCN(CC)c1c(-c2c(F)cc(F)cc2F)c(Cl)nc2ccnn12 | 90
Fc1cc(F)c(-c2c(Cl)nc3ccnn3c2NC2CCCC2)c(F)c1 | 128

Ask: # return recorded melting point for entry CC(C)Nc1c(-c2c(F)cc(F)cc2F)c(Cl)nc2ccnn12
Reply: 143

Ask: # return recorded melting point for entry CC(C)N(C)c1c(-c2c(F)cc(F)cc2F)c(Cl)nc2ccnn12
Reply: 109
